Test readout: melting point

Any idea what its melting point is? The molecule is COc1ccc2c(CC#N)c[nH]c2c1
100 °C

Can you check CCOC(=O)C(=CNc1cccccc1=O)C(=O)OCC next?
66 to 68 °C

Can you check CCCCN1CC(=O)N2[C@@H](c3ccc(NS(C)(=O)=O)cc3)c3[nH]c4ccccc4c3C[C@@H]2C1=O (relative stereo) next?
188 °C

Can you check CC(=O)OC1CSC(Oc2cccc(Cl)n2)C(OC(C)=O)C1OC(C)=O (stereo unspecified) next?
127 °C

Can you check O=C(c1ccccc1)c1cc([N+](=O)[O-])ccc1NC1CCCCC1 next?
75 °C

---
Any idea what its melting point is? The molecule is CCC1=NN=C(CC)NN1
118 to 120 °C

Can you check Cc1cc(-n2ccc(OCc3ccc(F)cc3)cc2=O)sc1C(=O)NCc1ccccc1 next?
195 to 197 °C

Can you check Cc1ccc(Cn2nc(C(=O)NC3C(C)CCCC3C)cc2-c2ccc(Cl)c(Cl)c2)cc1Cl (stereo unspecified) next?
59.9 °C

Can you check NS(=O)(=O)c1ccc(-c2[nH]c3ccccc3c2-c2ccccc2)cc1 next?
231 to 232 °C

Can you check CC(C(=O)O)N(C(=O)OC(C)(C)C)c1ccc([N+](=O)[O-])cc1 (stereo unspecified) next?
100 to 104 °C

Can you check CCn1ncc2nc(C(=O)NC)c(-c3ccccc3)nc21 next?
165 to 166 °C

Can you check O=C(OCc1ccccc1)N1CCN(c2ccc(-c3ccnc(Nc4ccc5[nH]nnc5c4)n3)cn2)CC1 next?
247 to 249 °C

Can you check CSc1nc(C)n(CC(=O)O)c(=O)c1C#N next?
236 to 238 °C

Can you check CCCn1c(=O)c2c(nc(/C=C/c3ccc(Cl)cc3)n2C)n(CCC)c1=O next?
175 to 187 °C

----------
Test readout: melting point

Any idea what its melting point is? The compound is OCCCCCCCCCCCCCCCCCCCCCCC(F)(F)C(F)(F)C(F)(F)C(F)(F)F
69 to 71 °C

Can you check CC(C)COC(=O)Nc1nc(N2CC=CCC2)nc2nc(=O)on12 next?
210 to 215 °C

Can you check CNC(=O)CN1CCc2cc(Nc3ncc(Cl)c(Nc4c(F)cccc4C(=O)NC)n3)c(OC)cc2CC1 next?
119 to 130 °C

Can you check CC(=O)N1CCC(C)(C)c2cc(/C(C)=C/c3ccc(C(=O)O)cc3)ccc21 next?
200 to 202 °C

Can you check NS(=O)(=O)Oc1ccc2ccccc2c1 next?
114 to 115 °C

---
Any idea what its melting point is? The compound is Cc1ccc(S(=O)(=O)Nc2cc3c(c(C(=O)O)c2)NCCO3)cc1
213 to 215 °C

Can you check O=c1[nH]c2cc(Cl)cc(Cl)c2c(=O)n1Cc1cccc2ccccc12 next?
274 to 276 °C

Can you check CCOC(=O)C(C#N)=C1CCN(c2ccc(N3C[C@H](CNC(C)=O)OC3=O)cc2F)CC1 next?
165 to 169 °C

Can you check CC(=O)NC[C@H]1CN(c2ccc(N3C[C@H]4CN(C(=O)COCc5ccccc5)C[C@H]4C3)c(F)c2)C(=O)O1 next?
138 to 140 °C

Can you check CCc1cc(Nc2ccc(Sc3ccncc3)cc2)nc(N)n1 next?
181 to 186 °C
